molecular target: RXRγ (Mus musculus, UniProt P28705); test: RXRγ receptor transactivation (Table 1); settings: RXR γ
Sequence (P28705 whole entry): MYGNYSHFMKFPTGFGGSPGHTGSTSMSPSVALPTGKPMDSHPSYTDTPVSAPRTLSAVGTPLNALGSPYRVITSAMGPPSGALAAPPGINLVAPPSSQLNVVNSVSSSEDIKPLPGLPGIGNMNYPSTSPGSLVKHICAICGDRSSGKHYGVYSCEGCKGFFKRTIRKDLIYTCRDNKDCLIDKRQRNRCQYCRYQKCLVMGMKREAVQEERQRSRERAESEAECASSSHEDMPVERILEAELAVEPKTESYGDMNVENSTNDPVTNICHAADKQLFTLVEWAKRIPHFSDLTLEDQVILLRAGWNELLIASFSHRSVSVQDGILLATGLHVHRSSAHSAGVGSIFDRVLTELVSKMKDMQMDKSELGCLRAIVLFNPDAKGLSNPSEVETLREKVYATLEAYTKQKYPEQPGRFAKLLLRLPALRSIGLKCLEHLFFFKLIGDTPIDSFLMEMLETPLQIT
Observed Property: EC50 (nM)
Value expressed in nM; do not type the unit.

Look over these answered cases.
{"Compound": "CC(/C=C/[C@@H]1C[C@]1(C)c1ccc2c(c1)C(C)(C)CCN2C(=O)OC(C)(C)C)=C\\C(=O)O [Compound 17]", "Experimental Result": 0.31}
{"Compound": "CC(/C=C/[C@@H]1C[C@]1(C)c1ccc2c(c1)C(C)(C)CC(=S)N2C(C)C)=C\\C(=O)O [Compound 2]", "Experimental Result": 0.059}

// next item, EC50 requested
The reported value for CC(/C=C/[C@@H]1C[C@]1(C)c1ccc2c(c1)C(C)(C)CC(=O)N2C(C)C)=C\C(=O)O [Compound 1] in terms of EC50 is 0.085

* * *

A set of compounds tested on RXRα (Homo sapiens), with measured Kd:
Value expressed in nM; do not type the unit.

{"Compound": "CC(/C=C/[C@@H]1C[C@]1(C)c1ccc2c(c1)C(C)(C)CC(=S)N2C(C)C)=C\\C(=O)O [Compound 2]", "Kd, nM": 0.97}

// next item, Kd requested
Entry CC(/C=C/[C@@H]1C[C@]1(C)c1ccc2c(c1)C(C)(C)CCN2C(=O)OC(C)(C)C)=C\C(=O)O [Compound 17] , RXRα (Homo sapiens) data, Kd value: 0.35

* * *

Target: RARβ (Homo sapiens, UniProt P10826)
Sequence (P10826 1-448 isoform P10826-2): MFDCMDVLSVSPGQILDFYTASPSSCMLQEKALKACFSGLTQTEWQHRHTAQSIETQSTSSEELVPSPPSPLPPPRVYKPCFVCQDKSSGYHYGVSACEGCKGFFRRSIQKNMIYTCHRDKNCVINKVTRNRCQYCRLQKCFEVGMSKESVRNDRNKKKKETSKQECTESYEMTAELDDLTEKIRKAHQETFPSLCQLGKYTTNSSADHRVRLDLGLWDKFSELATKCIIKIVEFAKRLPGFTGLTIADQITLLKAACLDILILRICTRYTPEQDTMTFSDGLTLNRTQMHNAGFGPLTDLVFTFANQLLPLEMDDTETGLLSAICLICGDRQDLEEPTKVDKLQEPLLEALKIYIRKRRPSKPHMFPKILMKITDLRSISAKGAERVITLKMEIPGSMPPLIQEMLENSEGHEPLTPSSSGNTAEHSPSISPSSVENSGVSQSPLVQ
Observed Property: Kd (µM)
Value expressed in µM; do not type the unit.

The reported value for CC(/C=C/[C@@H]1C[C@]1(C)c1ccc2c(c1)C(C)(C)CCN2C(=O)OC(C)(C)C)=C\C(=O)O in terms of Kd is 10

* * *

Molecular target: RARα (Homo sapiens, UniProt P10276)
Sequence (P10276 1-462): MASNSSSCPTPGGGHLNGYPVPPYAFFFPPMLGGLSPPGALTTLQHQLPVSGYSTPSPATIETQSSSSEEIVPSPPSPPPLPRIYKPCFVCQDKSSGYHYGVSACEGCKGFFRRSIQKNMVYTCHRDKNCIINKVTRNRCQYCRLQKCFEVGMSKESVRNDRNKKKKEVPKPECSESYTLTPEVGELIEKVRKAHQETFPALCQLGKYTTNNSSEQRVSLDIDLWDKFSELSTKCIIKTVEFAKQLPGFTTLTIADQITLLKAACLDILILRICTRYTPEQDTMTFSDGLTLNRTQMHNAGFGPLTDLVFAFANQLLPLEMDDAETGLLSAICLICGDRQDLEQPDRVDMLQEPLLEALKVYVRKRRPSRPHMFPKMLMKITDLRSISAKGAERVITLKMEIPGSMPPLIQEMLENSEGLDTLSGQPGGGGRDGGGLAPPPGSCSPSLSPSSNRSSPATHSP
Observed Property: pKd
// field semantics: pKd = negative decimal log of concentration (mol/L)

The reported value for CC(/C=C/[C@@H]1C[C@]1(C)c1ccc2c(c1)C(C)(C)CC(=S)N2C(C)C)=C\C(=O)O in terms of pKd is 4.57

* * *

biological target: RARγ (Homo sapiens, UniProt P13631)
Sequence (P13631 whole entry): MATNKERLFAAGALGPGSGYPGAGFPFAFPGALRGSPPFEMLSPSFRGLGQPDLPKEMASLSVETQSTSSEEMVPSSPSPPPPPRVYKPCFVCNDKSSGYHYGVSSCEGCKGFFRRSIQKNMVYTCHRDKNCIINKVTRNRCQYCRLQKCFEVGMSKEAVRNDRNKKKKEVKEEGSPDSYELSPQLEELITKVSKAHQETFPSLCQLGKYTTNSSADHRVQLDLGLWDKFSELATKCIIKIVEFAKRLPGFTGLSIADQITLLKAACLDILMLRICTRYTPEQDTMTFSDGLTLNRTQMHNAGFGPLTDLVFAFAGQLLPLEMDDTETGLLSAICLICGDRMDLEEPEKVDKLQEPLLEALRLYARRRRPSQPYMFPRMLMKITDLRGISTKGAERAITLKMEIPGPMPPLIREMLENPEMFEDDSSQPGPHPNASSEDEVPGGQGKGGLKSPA
pKd: −log10 of the molar value.
Observed Property: pKd

The reported value for CC(/C=C/[C@@H]1C[C@]1(C)c1ccc2c(c1)C(C)(C)CC(=O)N2C(C)C)=C\C(=O)O [Compound 1] in terms of pKd is < 5.00

* * *

Entries and their EC50
molecular target: RXRα (Homo sapiens, UniProt P19793); assay: RXRα receptor transactivation (Table 1); details: RXR α
Sequence (P19793 whole entry): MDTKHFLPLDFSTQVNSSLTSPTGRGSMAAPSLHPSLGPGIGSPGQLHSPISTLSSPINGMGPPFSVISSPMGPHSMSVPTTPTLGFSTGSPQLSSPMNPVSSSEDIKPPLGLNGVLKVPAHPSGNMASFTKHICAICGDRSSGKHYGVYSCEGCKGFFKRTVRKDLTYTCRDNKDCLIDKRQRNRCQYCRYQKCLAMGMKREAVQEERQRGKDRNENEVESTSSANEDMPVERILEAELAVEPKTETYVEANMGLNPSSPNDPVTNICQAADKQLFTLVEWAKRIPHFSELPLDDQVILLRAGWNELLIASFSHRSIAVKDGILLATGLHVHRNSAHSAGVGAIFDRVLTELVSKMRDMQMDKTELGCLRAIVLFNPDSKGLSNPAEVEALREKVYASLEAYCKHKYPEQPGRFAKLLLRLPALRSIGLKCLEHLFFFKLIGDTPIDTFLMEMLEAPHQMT
Value expressed in nM; do not type the unit.

{"Chemical Smiles": "CC(/C=C/[C@@H]1C[C@]1(C)c1ccc2c(c1)C(C)(C)CC(=O)N2C(C)C)=C\\C(=O)O", "Uom": "nM", "Experimental Result": 0.077}
{"Chemical Smiles": "CC(/C=C/[C@@H]1C[C@]1(C)c1ccc2c(c1)C(C)(C)CC(=S)N2C(C)C)=C\\C(=O)O", "Uom": "nM", "Experimental Result": 0.064}

// next item, EC50 requested
The reported value for CC(/C=C/[C@@H]1C[C@]1(C)c1ccc2c(c1)C(C)(C)CCN2C(=O)OC(C)(C)C)=C\C(=O)O in terms of EC50 is 0.15

* * *

biological target: RXRγ (Mus musculus)
Observed Property: Kd (nM)
Value expressed in nM; do not type the unit.

Entry CC(/C=C/[C@@H]1C[C@]1(C)c1ccc2c(c1)C(C)(C)CC(=S)N2C(C)C)=C\C(=O)O , RXRγ (Mus musculus) data, Kd value: 10.5

Entry CC(/C=C/[C@@H]1C[C@]1(C)c1ccc2c(c1)C(C)(C)CCN2C(=O)OC(C)(C)C)=C\C(=O)O , RXRγ (Mus musculus) data, Kd value: 4.1

* * *

Entries and their EC50
Target: RXRβ (Mus musculus)
Sequence (P28704 1-520): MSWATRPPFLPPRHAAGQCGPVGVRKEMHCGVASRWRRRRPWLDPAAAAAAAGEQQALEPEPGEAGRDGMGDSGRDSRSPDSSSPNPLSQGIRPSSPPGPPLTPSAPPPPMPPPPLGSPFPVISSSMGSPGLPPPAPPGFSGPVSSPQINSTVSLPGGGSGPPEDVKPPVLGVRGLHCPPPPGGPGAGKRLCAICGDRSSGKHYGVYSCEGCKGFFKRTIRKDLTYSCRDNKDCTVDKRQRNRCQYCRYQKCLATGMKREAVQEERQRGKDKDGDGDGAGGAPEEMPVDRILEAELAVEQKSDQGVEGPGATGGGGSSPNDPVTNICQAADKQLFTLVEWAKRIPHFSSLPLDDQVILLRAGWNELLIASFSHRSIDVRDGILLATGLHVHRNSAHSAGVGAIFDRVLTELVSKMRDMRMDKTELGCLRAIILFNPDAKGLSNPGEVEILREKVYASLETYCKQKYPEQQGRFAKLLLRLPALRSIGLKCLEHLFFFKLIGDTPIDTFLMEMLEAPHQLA
Assay: RXRβ receptor transactivation (Table 1)
Conditions: RXR β
Value expressed in nM; do not type the unit.

Look over these answered cases.
{"Molecule": "CC(/C=C/[C@@H]1C[C@]1(C)c1ccc2c(c1)C(C)(C)CC(=O)N2C(C)C)=C\\C(=O)O [Compound 1]", "Experimental Result": 0.627}
{"Molecule": "CC(/C=C/[C@@H]1C[C@]1(C)c1ccc2c(c1)C(C)(C)CC(=S)N2C(C)C)=C\\C(=O)O [Compound 2]", "Experimental Result": 0.376}

// next item, EC50 requested
The reported value for CC(/C=C/[C@@H]1C[C@]1(C)c1ccc2c(c1)C(C)(C)CCN2C(=O)OC(C)(C)C)=C\C(=O)O [Compound 17] in terms of EC50 is 0.42
